Below: a set of entries, each annotated with reported Papp at 18 hours, 50 µM.
Assay: PAMPA (parallel artificial membrane permeability assay)
Type: in vitro ADME
Details: PAMPA; membrane permeation rate (Pe); 50 mM MOPSO buffer pH 6.5 with 5.0% glycocholic acid, 37° C., 18 hours; read-out: iPAMPA Pe
Positions of bridges follow the written chain, without caps; N, C: chain ends. Non-standard residues stand in square brackets, D forms with d. Residues, ends and D or L forms follow the SMILES beside them. *: point of attachment. NMeF = CN[C@@H](Cc1ccccc1)C(=O)O; NMeL = CN[C@@H](CC(C)C)C(=O)O; NMeA = CN[C@@H](C)C(=O)O; Piperidide = C1CCN(*)CC1
Respond numerically; units are ×10⁻⁶ cm/s and should not be typed.

CC(C)C[C@H]1C(=O)N(C)[C@@H](C)C(=O)N(C)[C@@H](CC(C)C)C(=O)N[C@H](C(=O)N2CCCCC2)CC(=O)N(C)[C@@H](C)C(=O)N(C)[C@@H](Cc2ccccc2)C(=O)N[C@@H]([C@@H](C)O)C(=O)N(C)[C@@H](C)C(=O)N(C)[C@@H](CC(C)C)C(=O)NCC(=O)N1C [DP-489] ([NMeA][NMeF]T[NMeA][NMeL]G[NMeL][NMeA][NMeL]D-Piperidide; lactam N-10)    24

Q. Give the measured Papp at 18 hours, 50 µM of CC[C@H](C)[C@@H]1NC(=O)[C@H](Cc2ccccc2)N(C)C(=O)[C@H](CC(C)C)NC(=O)[C@H](CC(C)C)NC(=O)[C@H](Cc2ccccc2)NC(=O)[C@H](CC(C)C)NC(=O)[C@@H](C)NC(=O)C[C@@H](C(=O)N(C)[C@@H](C)C(=O)N[C@@H](CC(C)C)C(=O)N[C@@H](C)C(=O)N[C@H](C(=O)N2CCCCC2)[C@@H](C)CC)NC(=O)[C@H](Cc2ccccc2)NC(=O)[C@H]([C@@H](C)O)NC1=O [DP-580] ([dA]LFLL[NMeF]ITFD[NMeA]LAI-Piperidide; lactam N-10) .
A. 0.13

----------
Below: a set of entries, each annotated with reported microsomal CLint at 1 uM.
Test: Metabolic stability in human hepatic microsome
Format: in vitro ADME
Details: microsomes, pH 7.4; human hepatic microsome, NADPH(+); read-out: CL NADPH(+)
Starred links: 1 amine or outer side, 2 acyl side, 3 side chain; linkers in the order of their positions; H or OH if unused. Positions of bridges follow the written chain, without caps; N, C: chain ends. Non-standard residues stand in square brackets, D forms with d. Residues, ends and D or L forms follow the SMILES beside them. *: point of attachment. NMeF = CN[C@@H](Cc1ccccc1)C(=O)O; NMeβAla = CN(CCC(=O)[*:2])[*:1]; NMeL = CN[C@@H](CC(C)C)C(=O)O; Piperidide = C1CCN(*)CC1; dNMeA = CN[C@H](C)C(=O)O

CC(C)C[C@@H]1NC(=O)[C@H](Cc2ccccc2)NC(=O)[C@H](CC(C)C)N(C)C(=O)[C@H](Cc2ccccc2)NC(=O)[C@@H](C)N(C)C(=O)C[C@@H](C(=O)N2CCCCC2)NC(=O)[C@H](Cc2ccccc2)N(C)C(=O)CNC(=O)[C@H]([C@@H](C)O)NC(=O)[C@H](CC(C)C)NC1=O [DP-486] ([dNMeA]F[NMeL]FLLTG[NMeF]D-Piperidide; lactam N-10)    87 µL/min/mg

Q. Give the measured microsomal CLint at 1 uM of CC(C)C[C@@H]1NC(=O)[C@H](Cc2ccccc2)N(C)C(=O)[C@H](CC(C)C)N(C)C(=O)CCN(C)C(=O)C[C@@H](C(=O)N2CCCCC2)NC(=O)[C@H](CC(C)C)N(C)C(=O)[C@H](Cc2ccccc2)N(C)C(=O)[C@H]([C@@H](C)O)NC(=O)[C@H](Cc2ccccc2)N(C)C1=O [DP-126] ([NMeβAla][NMeL][NMeF]L[NMeF]T[NMeF][NMeL]D-Piperidide; lactam N-9) .
A. 239 µL/min/mg

----------
Test: Metabolic stability in human hepatic microsome
Format: in vitro ADME
Details: human, microsomes, pH 7.4, Hepatic Microsome CLhint Human
Starred links: 1 amine or outer side, 2 acyl side, 3 side chain; linkers in the order of their positions; H or OH if unused. Positions of bridges follow the written chain, without caps; N, C: chain ends. Non-standard residues stand in square brackets, D forms with d. Residues, ends and D or L forms follow the SMILES beside them. *: point of attachment. Cys(O)(CH2CO) = O=C([C@H](C[S+]([O-])CC(=O)[*:3])N[*:1])[*:2]; NMeF = CN[C@@H](Cc1ccccc1)C(=O)O; NMeI = CC[C@H](C)[C@H](NC)C(=O)O; NMeL = CN[C@@H](CC(C)C)C(=O)O; NMeA = CN[C@@H](C)C(=O)O; Piperidide = C1CCN(*)CC1; Sar = CNCC(=O)O; tBu = CC(C)(C)*
ASSAY ENDPOINT: microsomal CLint at 1 uM (µL/min/mg)
Respond numerically; units are µL/min/mg and should not be typed.

CC[C@H](C)[C@H]1C(=O)N[C@H](C(=O)N2CCCCC2)C[S+]([O-])CC(=O)N(C)[C@@H](C)C(=O)N(C)[C@@H](Cc2ccccc2)C(=O)N(C)[C@@H](CC(C)C)C(=O)N[C@@H]([C@@H](C)O)C(=O)N(C)CC(=O)N(C)[C@@H](CC(C)C)C(=O)N[C@@H](COC(C)(C)C)C(=O)N1C (stereo partly shown) [Compound P-114] ([NMeA][NMeF][NMeL]T[Sar][NMeL]S(tBu)[NMeI][Cys(O)(CH2CO)]-Piperidide; lactam N-9)    35.3
CC[C@H](C)[C@H]1C(=O)N[C@H](C(=O)N2CCCCC2)CSCC(=O)N(C)[C@@H](Cc2ccccc2)C(=O)N(C)[C@@H](CC(C)C)C(=O)N[C@@H]([C@@H](C)O)C(=O)N(C)CC(=O)N(C)[C@@H](CC(C)C)C(=O)N[C@@H](COC(C)(C)C)C(=O)N1C [Compound P-103] ({CH2CO}-[NMeF][NMeL]T[Sar][NMeL]S(tBu)[NMeI]C-Piperidide; thioether N-8)    221

Q. Give the measured microsomal CLint at 1 uM of CC[C@H](C)[C@H]1C(=O)N[C@H](C(=O)N2CCCCC2)CSCC(=O)N(C)[C@@H](C)C(=O)N(C)[C@@H](Cc2ccccc2)C(=O)N(C)[C@@H](CC(C)C)C(=O)N[C@@H]([C@@H](C)O)C(=O)N(C)CC(=O)N(C)[C@@H](CC(C)C)C(=O)N[C@@H](COC(C)(C)C)C(=O)N1C [Compound P-109] ({CH2CO}-[NMeA][NMeF][NMeL]T[Sar][NMeL]S(tBu)[NMeI]C-Piperidide; thioether N-9) .
A. 158

Q. Repeat for the following compound: CC(C)C[C@H]1C(=O)N[C@@H](COC(C)(C)C)C(=O)N[C@H](C(=O)N2CCCCC2)CSCC(=O)N(C)[C@@H](C)C(=O)N(C)[C@@H](Cc2ccccc2)C(=O)N(C)[C@@H](CC(C)C)C(=O)N[C@@H]([C@@H](C)O)C(=O)N(C)CC(=O)N1C [Compound P-102] ({CH2CO}-[NMeA][NMeF][NMeL]T[Sar][NMeL]S(tBu)C-Piperidide; thioether N-8)
A. 124

----------
Assay: Metabolic stability in human hepatic microsome
Type: in vitro ADME
Conditions: microsomes, pH 7.4; human hepatic microsome, NADPH(+); read-out: CL NADPH(+)
Positions of bridges follow the written chain, without caps; N, C: chain ends. Non-standard residues stand in square brackets, D forms with d. Residues, ends and D or L forms follow the SMILES beside them. *: point of attachment. NMeI = CC[C@H](C)[C@H](NC)C(=O)O; NMeL = CN[C@@H](CC(C)C)C(=O)O; NMeA = CN[C@@H](C)C(=O)O; Piperidide = C1CCN(*)CC1; Aze = O=C(O)[C@@H]1CCN1
ASSAY ENDPOINT: microsomal CLint at 1 uM (µL/min/mg)
Respond numerically; units are µL/min/mg and should not be typed.

CC[C@H](C)[C@H]1C(=O)NCC(=O)N(C)[C@@H](CC(C)C)C(=O)N[C@@H]([C@@H](C)O)C(=O)N2CCC[C@H]2C(=O)N[C@@H](Cc2ccccc2)C(=O)N[C@H](C(=O)N2CCCCC2)CC(=O)N(C)[C@@H](C)C(=O)N[C@@H](Cc2ccccc2)C(=O)N(C)[C@@H](CC(C)C)C(=O)N[C@@H](CC(C)C)C(=O)N1C [DP-236] ([NMeA]F[NMeL]L[NMeI]G[NMeL]TPFD-Piperidide; lactam N-11)    79

Q. Give the measured microsomal CLint at 1 uM of CC[C@H](C)[C@H]1C(=O)NCC(=O)N(C)[C@@H](CC(C)C)C(=O)N[C@@H]([C@@H](C)O)C(=O)N2CCC[C@H]2C(=O)N[C@@H](Cc2ccccc2)C(=O)N[C@H](C(=O)N2CCCCC2)CC(=O)N(C)[C@@H](C)C(=O)N[C@@H](Cc2ccccc2)C(=O)N2CC[C@H]2C(=O)N[C@@H](CC(C)C)C(=O)N1C [DP-552] ([NMeA]F[Aze]L[NMeI]G[NMeL]TPFD-Piperidide; lactam N-11) .
A. 157
